Target: rBASIC (rat bile acid-sensitive ion channel) (Rattus norvegicus)
Sequence (Q9R0W5 whole entry): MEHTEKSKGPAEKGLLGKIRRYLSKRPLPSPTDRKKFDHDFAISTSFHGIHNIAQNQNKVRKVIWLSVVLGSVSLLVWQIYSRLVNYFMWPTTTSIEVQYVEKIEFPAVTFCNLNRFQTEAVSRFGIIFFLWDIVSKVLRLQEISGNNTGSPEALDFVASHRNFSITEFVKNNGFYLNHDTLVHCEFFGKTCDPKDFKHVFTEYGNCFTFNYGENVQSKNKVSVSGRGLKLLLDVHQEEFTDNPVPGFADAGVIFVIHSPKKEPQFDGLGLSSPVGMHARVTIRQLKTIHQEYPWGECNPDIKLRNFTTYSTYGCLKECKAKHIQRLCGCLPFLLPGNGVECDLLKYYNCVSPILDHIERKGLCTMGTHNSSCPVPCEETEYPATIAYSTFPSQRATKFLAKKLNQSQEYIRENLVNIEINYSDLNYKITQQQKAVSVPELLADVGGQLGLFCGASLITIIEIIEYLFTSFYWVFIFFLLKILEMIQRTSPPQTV
Assay: oocyte current recording, concentration-response, Hill fit
pEC50: −log10 of the molar value.
endpoint: pEC50

[
  {
    "molecule": "C[C@H](CCC(=O)O)[C@H]1CC[C@H]2[C@@H]3C[C@H](O)[C@@H]4C[C@H](O)CC[C@]4(C)[C@H]3CC[C@]12C [HDCA]",
    "pEC50": 2.68
  },
  {
    "molecule": "C[C@H](CCC(=O)O)[C@H]1CC[C@H]2[C@@H]3[C@@H](O)C[C@@H]4C[C@H](O)CC[C@]4(C)[C@H]3CC[C@]12C [UDCA]",
    "pEC50": 2.60
  }
]

Where these numbers come from: paper PMC3589280
